Test system: HCC-2998 colon
Assay: NCI tumour cell line growth inhibition, 48 h
parameterMeasured: TGI

Example entries and their recorded answers appear below.
Enter reported TGI observed with HCC-2998 colon for NC(=O)c1nnsc1N/N=C/c1ccc([N+](=O)[O-])cc1 > 100 µM

Record lookup: for HCC-2998 colon, what TGI belongs to O=C1/C(=N\O)C2CCC1C2 (centres undefined) ? > 100 µM

---
Lab note: need TGI with HCC-2998 colon for entry CCN(CC)CCOc1cccc2nc3c(cc12)Cn1c-3cc2c(c1=O)COC(=O)C2(O)CC (centres undefined) , please look it up. 21.8 µM

Write down the reported TGI of CC(C)(C)OC(=O)NC(Cc1ccc(OCc2ccccc2)cc1)C(=O)NC(COCc1ccccc1)C(=O)Oc1c(Cl)c(Cl)c(Cl)c(Cl)c1Cl (centres undefined) , test system: HCC-2998 colon. 40.5 µM

Tell me reported TGI for O=C(Nc1ccccc1)C(=O)C(C(=O)c1ccccc1F)C1OC(=O)c2ccccc21 (centres undefined) , tested with HCC-2998 colon. 57.4 µM

Give recorded TGI with HCC-2998 colon for the following compound: N#CCC(=O)N/N=C(\CCN1CCCC1)CC(c1ccccc1)c1c(O)c2ccccc2oc1=O (centres undefined) > 100 µM

Lab note: need TGI for CN(C)C(=S)/N=C1\SC(=Nc2ccccc2)C(=Nc2ccccc2)N1c1ccc([N+](=O)[O-])cc1 on HCC-2998 colon, anyone have it? > 100 µM

Report TGI for CC[C@]1(O)CC2CN(CCCc3c([nH]c4ccccc34)[C@@](C(=O)OC)(c3cc4c(cc3OC)N(C)C3C45CCN4CC=C[C@](CC)(C45)C(OC(C)=O)[C@@]3(O)C(=O)OC)C2)C1 (some centres undefined) tested on HCC-2998 colon. 8.2 µM

Please provide the recorded TGI for O=C(Nn1cc(F)c(=O)[nH]c1=O)C12CC3CC(CC(C3)C1)C2 , tested on HCC-2998 colon. 18.4 µM

---

Tested on: CCRF-CEM leukemia
Assay: NCI tumour cell line growth inhibition, 48 h
# TGI per entry

Lookup: TGI / CCRF-CEM leukemia / CCn1c2ccccc2c2nnc(NCCCO)nc21 > 100 µM

CCRF-CEM leukemia / TGI / Cc1ccc(/C=C2\COc3ccc(O)c(O)c3C2=O)cc1 : value? 1.48 µM

***
Please state recorded TGI (tested on CCRF-CEM leukemia) of CCOC(=O)/C(ON)=C(/CC/C(C(=O)OC)=C(\ON)C(=O)OCC)C(=O)OC > 100 µM

Give the reported TGI for O=c1cnnc2sc(=S)[nH]n12 (system: CCRF-CEM leukemia). 12.1 µM

Recorded TGI for CN(C)C(=S)/N=C1\SC(=Nc2ccccc2)C(=Nc2ccccc2)N1c1ccc([N+](=O)[O-])cc1 with CCRF-CEM leukemia, please? > 100 µM

What value of TGI on CCRF-CEM leukemia does COc1ccc(NC(=O)CC(=O)NN)cc1 have? > 100 µM

# returns recorded TGI (system: CCRF-CEM leukemia) for CCOC(=O)c1nnsc1NC(=O)NN > 100 µM

Identify the measured TGI of CC(C)Oc1c(N(Cc2ccccc2)c2ccccc2C2SCCCS2)c(=O)c1=O for CCRF-CEM leukemia. > 100 µM

// lookup TGI | system=CCRF-CEM leukemia | key= CC(C)(C)OC/C=C(\Br)CO > 100 µM

Any idea what TGI came out for Cc1cc2c(cc1C)[n+](=O)c(C(=O)C(C)(C)C)c(C(F)(F)F)n2[O-] on CCRF-CEM leukemia? 49.3 µM
